Hi there, I'd appreciate the recorded inhibition for every entry that follows.
- system_name: L-lactate dehydrogenase (Plasmodium falciparum (isolate CDC / Honduras))
- experiment_summary: PfLDH activity inhibition – cell lysate, 3D7 strain, counter-screen for P. falciparum growth inhibition project (AID 2304);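 further: 0% = vehicle and 100% = reference inhibitor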
- condition_set: P. falciparum 3D7 crude extract, LDH APAD/NBT absorbance; at 2 µM; active compounds read high
Write the value in % as a bare number.

Form: compound = Nc1nc2c(c(=O)[nH]1)-c1cccc(Br)c1CC2 ; inhibition = 0

Form: compound = O=C1COc2cc(Cl)c(CNC3CCN(CCc4ccnc5c(F)cc(F)cc45)CC3)nc2N1 ; inhibition = -2

Form: compound = O=C1C(C2CCC(c3ccc(Cl)cc3)CC2)=C2OCC3COC2(O3)c2ccccc21 (centres undefined) ; inhibition = -2

Form: compound = COc1cc2c(cc1S(=O)(=O)c1ccc(OCc3ccc(Cl)cc3)cc1)CCN(Cc1ccc(NC(C)=O)s1)CC2 ; inhibition = -2

Form: compound = CC(O)C1CCCCN1C(=O)c1cccc(-c2ccc(-c3nc4ccc(F)cc4[nH]3)cc2)c1 (centres undefined) ; inhibition = -6

Form: compound = Cc1cnc(Nc2ccccc2)nc1N[C@@H](CCCN)C(=O)Nc1ccccc1 ; inhibition = -1

Form: compound = Oc1ccccc1CNCC12CC3CC(CC(C3)C1)C2 ; inhibition = 5

Form: compound = O=C(/C=C/c1ccc(Cl)c(Cl)c1)NCCCCCN1CCC(NC(=S)Nc2ccc(Cl)cc2)CC1 ; inhibition = -1

Form: compound = Cc1cccc2[nH]c(-c3ccc(-c4ccc(CN5CCCCC5)cc4)s3)nc12 ; inhibition = -2

Form: compound = O=C(Nc1ccc(NC2=NCCN2)cc1)c1ccc(C(=O)Nc2ccc(NC3=NCCN3)cc2)cc1 ; inhibition = -8

Form: compound = O=C(NCCCCN1CCN(c2cccc3c2OCCO3)CC1)c1ccc(NC(=O)c2cc(Cl)cc(Cl)c2)cc1 ; inhibition = -3

Form: compound = CC(=O)Nc1nc(C(=O)Nc2cccc(-c3ccc(-c4nc5c(C)cccc5[nH]4)s3)c2)cs1 ; inhibition = -2

Form: compound = CCCN(C(=O)c1ccccc1C)c1nnc(-c2ccccc2C)s1 ; inhibition = -7

Form: compound = COc1ccc2nccc([C@@H](O)CN3CCC(NC(=O)C(c4cc5ccccc5s4)N4CC(C)OC(C)C4)CC3)c2c1 (some centres undefined) ; inhibition = -6

Form: compound = CCCNCc1ccc(-c2ccc(CN(CCOC)C(=O)c3cscn3)cc2)nc1 ; inhibition = 2

Form: compound = COc1ccc(NC(=O)[C@H](Cc2ccccc2)Nc2cc(C)nc(NCCc3cccnc3)n2)cc1 ; inhibition = -4

Form: compound = CC(C)c1ccc(C2CCN(CCCCNC(=O)c3ccc(NC(=O)c4ccc(C(F)(F)F)cc4)cc3)CC2)c(O)c1 ; inhibition = 7

Form: compound = Cc1cccc2[nH]c(-c3cccc(-c4cccc(NC(=O)C5CC(=O)Nc6ccccc65)c4)c3)nc12 (centres undefined) ; inhibition = 0

Form: compound = CCc1c(CCNCCCCCCNCCc2ccc3c(c2C)OCO3)ccc2c1OCO2 ; inhibition = 7

Form: compound = COc1ccc2nccc([C@@H](O)CN3CCC(NC(=O)c4ccc(Oc5ccccc5)cc4)CC3)c2c1 ; inhibition = 2

Form: compound = O=S(=O)(Nc1cccc(CCN2CCC(N3CCCCC3)CC2)c1)c1ccc(Oc2ccccc2)nc1 ; inhibition = -2

Form: compound = COc1ccc(Cn2c(Nc3cccc(C(F)(F)F)c3)nc3cc(C(=O)NC4CC4)cnc32)cc1Cl ; inhibition = -3

Form: compound = COc1ccc(F)cc1-c1ccc(C(=O)N2CCCN(c3ccc(C#N)cn3)CC2)cc1 ; inhibition = -2

Form: compound = Cc1cc(C2CCN(CCCCNC(=O)c3ccc(-c4ccc(C(F)(F)F)cc4)cc3)CC2)c(C)cc1OCCO ; inhibition = 2

Form: compound = COc1ccc(OCCON)cc1 ; inhibition = -2

Form: compound = CC(C)Cn1c(Sc2ccc(C#N)c([N+](=O)[O-])c2)nnc1-c1ccccc1Cl ; inhibition = 2

Form: compound = CC(C)(C)Nc1nc(Nc2cccc([N+](=O)[O-])c2)nc(-n2ccnc2)n1 ; inhibition = -9

Form: compound = CCN(CC)CCCNc1c2ccccc2nc2ccccc12 ; inhibition = -1

Form: compound = Cc1ccc(N2C(N)=NC(N)=NC2(C)C)cc1Cl ; inhibition = -4

Form: compound = CCc1cn2c3c(cc(C(=O)N[C@@H](Cc4ccccc4)[C@H](O)CNC4CCCCC4)cc13)N(CC)S(=O)(=O)CC2 ; inhibition = -5

Form: compound = COc1ccc(CNCc2cccc(-c3ccc(-c4nc5ccccc5[nH]4)s3)c2)cc1 ; inhibition = 0

Form: compound = O=C(N[C@@H](Cc1ccccc1)[C@H](O)CNCCC(F)(F)F)c1cccc(OCC2CC2)c1 ; inhibition = -1

Form: compound = COc1ccc(CCCON2C(N)=NC(N)=NC2(C)C)cc1 ; inhibition = -1

Form: compound = FC(F)(F)c1ccc2nc(-c3ccc(-c4ccc(CNCc5cnn(-c6ccccc6)n5)cc4)s3)[nH]c2c1 ; inhibition = -2

Form: compound = COc1ccc(O)cc1/C=N/Nc1ccnc2cc(Cl)ccc12 ; inhibition = 3

Form: compound = Cc1ccc(NC(=O)c2ccc(NCCCN(C)Cc3ccccc3)c([N+](=O)[O-])c2)cc1F ; inhibition = -7

Form: compound = CN1CCN(CCCN(Cc2csc(-c3ccc(CNCc4ccccc4)cc3)n2)S(=O)(=O)c2cccc3cccnc23)CC1 ; inhibition = 1

Form: compound = Cc1cc(N[C@@H](CC(C)C)C(=O)NCc2cccs2)nc(NCCc2cccs2)n1 ; inhibition = -4

Form: compound = CCC(NCc1ccc(-c2cncc(C(=O)NCC(C)C)c2)cc1)c1ccccc1 (centres undefined) ; inhibition = 2
